# target-of-assay: T1, Recombinant human LILRB2 protein (ELISA antigen) (human, UniProt Q8N423 22-460)
# T1 construct: also called LILRB2-His; recombinant LILRB2
# T1 sequence (Q8N423 other isoform, or with tags, fused parts or gaps limits assumed): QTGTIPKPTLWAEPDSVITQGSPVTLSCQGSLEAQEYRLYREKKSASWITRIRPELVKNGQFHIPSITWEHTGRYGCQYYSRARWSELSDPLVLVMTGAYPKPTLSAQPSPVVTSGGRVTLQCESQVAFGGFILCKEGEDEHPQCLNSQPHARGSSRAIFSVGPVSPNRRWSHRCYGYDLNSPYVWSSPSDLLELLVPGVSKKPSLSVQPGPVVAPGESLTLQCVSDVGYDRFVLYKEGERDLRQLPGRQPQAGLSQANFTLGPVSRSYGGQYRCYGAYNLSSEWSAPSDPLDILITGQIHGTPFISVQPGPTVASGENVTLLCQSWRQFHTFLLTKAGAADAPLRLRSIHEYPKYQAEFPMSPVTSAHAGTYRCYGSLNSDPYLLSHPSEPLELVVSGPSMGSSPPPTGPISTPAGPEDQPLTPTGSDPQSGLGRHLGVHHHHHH
# assay-notes: ELISA, plate-coated recombinant human LILRB2
# Protocol: To confirm binding to human and cynomolgus LILRB2, antibodies in supernatants were evaluated for binding by enzyme-linked immunosorbent assay (ELISA). […] After development, the reaction was stopped by addition of 25 μL/well of 0.3 M HCl, and plates were read using an EnVision (Perkin Elmer) microplate reader at 450 nm. EC₅₀ values were calculated based on log concentration of the primary antibodies at optical density at 450 nm. […]
The label true (1) is reserved for EC50 strictly under 3 ng/mL; false (0) covers values equal to or above it.

B2H4-24 (antibody, V domains shown, Humanized variant, human IgG4 / kappa) VH: EVQLVESGGDLATPGGSLRLSCAVSGFSLSTYAMSWVRQAPGKGLEWVGWIYNDGSTYYAAWAKGRFTISKDTSKTTVYLQMTSLRAEDTALYFCAREGDYIGYFNIWGQGTLVTVSS VL: DIQMTQSPSSVSASVGDRVTITCQASQSIGSNLAWYQQKPGKAPKLLIYAAATLASGVPLRFSGSGSGTDFTLTISNLQPEDSATYYCQSYVSGSSDVAFGGGTKVEIK    true (1)
B2H4-51 (antibody, V domains shown, Humanized variant, human IgG4 / kappa) VH: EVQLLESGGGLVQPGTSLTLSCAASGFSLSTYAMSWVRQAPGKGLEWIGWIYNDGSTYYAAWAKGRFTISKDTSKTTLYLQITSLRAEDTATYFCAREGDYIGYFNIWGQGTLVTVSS VL: DIQMTQSPSSLSASVGDRVTITCQASQSIGSNLAWYQLKPGQRPKLLIYAAATLASGVPSRFKGSGSGTDFTLTISSLQSEDAATYYCQSYVSGSSDVAFGGGTEVVVK    false (0)
B2H4-55 (antibody, V domains shown, Humanized variant, human IgG4 / kappa) VH: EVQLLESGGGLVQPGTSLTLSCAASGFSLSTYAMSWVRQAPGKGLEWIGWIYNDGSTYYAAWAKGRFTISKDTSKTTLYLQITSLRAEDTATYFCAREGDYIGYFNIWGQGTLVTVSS VL: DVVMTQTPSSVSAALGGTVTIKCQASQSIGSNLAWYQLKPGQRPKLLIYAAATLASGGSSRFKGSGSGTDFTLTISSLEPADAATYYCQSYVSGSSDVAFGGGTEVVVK    true (1)

Next:
Exercise: Consider the binder B2H4-13 (antibody, V domains shown, Humanized variant, human IgG4 / kappa) VH: QVQLEESGGRVVQPGRSLRLSCAASGFSLSTYAMSWVRQAPGKGLEWIGWIYNDGSTYYAAWAKGRFTISKDTSKTTVFLQMNSLKPDDTATYFCAREGDYIGYFNIWGQGTLVTVSS VL: DIEMTQSPSSVSASVGDRVTLTCQASQSIGSNLAWYQQKPGQAPKLLIYAAATLASGVPSRFKGSGSGTDFTLTISSLQPEDFATYYCQSYVSGSSDVAFGGGTEVVVK . Is its EC50 strictly less than 3 ng/mL?
Solution: false (0)
